Data provenance is ChEMBL document CHEMBL1125741.

- assay: Time of peak effect (TPE) for activity
- Assay type: ADME
- Set-up: unit not given here
reported property: TPE
Keep it simple and answer with nothing but the number.

Worked cases, TPE given:
| compound | reported property | val |
| --- | --- | --- |
| O=C1c2ccccc2C(=O)N1O | TPE | 0.25 |
| CCC1(c2ccccc2)C(=O)NC(=O)NC1=O [PHENOBARBITAL] | TPE | 1 |
| O=C1CC2(CCCC2)C(=O)N1OCc1ccccc1 | TPE | 0.25 |
| CCC1(C)CC(=O)NC1=O (centres undefined) [ETHOSUXIMIDE] | TPE | 0.5 |
| C=C(CON1C(=O)c2ccccc2C1=O)C(=O)OC | TPE | 1 |
| CCCC(CCC)C(=O)O [VALPROIC ACID] | TPE | 0.25 |
| O=C1c2cccc3cccc(c23)C(=O)N1[O-].[Na+] | TPE | 0.25 |
| O=C1NC(=O)C(c2ccccc2)(c2ccccc2)N1 [PHENYTOIN] | TPE | 2 |

Now turn to the next compound.
INPUT: Recorded TPE of NC(=O)N1c2ccccc2C=Cc2ccccc21 [CARBAMAZEPINE] , please.
OUTPUT: 0.25

* * *

- assay: Time of peak effect (TPE) for toxicity
- Parameters: unit not given here
reported property: TPE
Please reply with the number alone, leaving off any unit.

| compound | TPE |
| --- | --- |
| NC(=O)N1c2ccccc2C=Cc2ccccc21 [CARBAMAZEPINE] | 0.25 |
| C=C(CON1C(=O)c2ccccc2C1=O)C(=O)OC | 4 |
| CCC1(c2ccccc2)C(=O)NC(=O)NC1=O | 0.5 |
| O=C1CC2(CCCC2)C(=O)N1OCc1ccccc1 | 4 |
| O=C1NC(=O)C(c2ccccc2)(c2ccccc2)N1 | 2 |
| O=C1c2cccc3cccc(c23)C(=O)N1[O-].[Na+] | 4 |
| O=C1c2ccccc2C(=O)N1O | 0.25 |
| CCCC(CCC)C(=O)O | 0.25 |

INPUT: Field request: TPE | item: CCC1(C)CC(=O)NC1=O (centres undefined) [ETHOSUXIMIDE]
OUTPUT: 0.5
